Molecular target: Rap guanine nucleotide exchange factor 4 (Homo sapiens)
Assay: Confirmatory qHTS for antagonist of cAMP-regulated guanine nucleotide exchange factor 4 (EPAC2) (AID 1645885); note: nearly all actives have a fitted effect of over 25% in size
Details: EPAC2 Rap1B-BODIPY-GDP exchange fluorescence, biochemical; series mostly up to 114 µM
Inconclusive results are not listed. The source made the active and inactive calls. Calls come from the whole dose curve; as a rule, active = well fitted inhibition curve with a large enough effect; inconclusive = small, poorly fitted or top-dose-only effect; inactive = no such curve, though single readings can be large or run the other way.
Labels: yes (1) for active, no (0) for inactive

[
  {
    "molecule": "Cn1cccc1C(=O)N1CCC2(CCCN(c3cccc(-c4ccccc4)c3)C2)CC1",
    "category_label": "no (0)"
  },
  {
    "molecule": "COc1ccc(-n2c(=O)c(-c3ccc(Cl)cc3)nc3cnc(N(C)C)nc32)cc1",
    "category_label": "no (0)"
  },
  {
    "molecule": "CN(C)c1ncc2nc(CCc3ccccc3)c(=O)n(Cc3ccc(F)cc3)c2n1",
    "category_label": "no (0)"
  },
  {
    "molecule": "C=C[C@](C)(O)CCC1C(=C)CC(OC(C)=O)C2C(C)(C)CCCC12C (stereo not given in full)",
    "category_label": "yes (1)"
  },
  {
    "molecule": "COc1cccc(-c2cc(NCCc3c[nH]c4ccc(OC)cc34)ncn2)c1",
    "category_label": "no (0)"
  },
  {
    "molecule": "CC(=O)OC1CCC23CC1(C)CCC2C(C)(C)CC3OC(C)=O (stereo not given)",
    "category_label": "yes (1)"
  },
  {
    "molecule": "CN(C)c1ncc2nc(-c3cc(F)cc(F)c3)c(=O)n(Cc3cccs3)c2n1",
    "category_label": "no (0)"
  },
  {
    "molecule": "C=CC(C1=CC(=O)C(OC)=CC1=O)c1ccccc1 (stereo not given)",
    "category_label": "yes (1)"
  },
  {
    "molecule": "COc1c(-c2ccc(O)c(O)c2)oc2cc(O)cc(O)c2c1=O",
    "category_label": "no (0)"
  },
  {
    "molecule": "O=c1c(-c2cc(F)cc(F)c2)nc2cnc(N3CCOCC3)nc2n1-c1ccccc1",
    "category_label": "no (0)"
  }
]

----------
Molecular target: Dual specificity protein kinase CLK4 (Homo sapiens)
Assay: qHTS Assay for Inhibitors of CDC-like Kinase 4 (ADP-Glo Assay) (AID 1771); note: nearly all actives have a fitted effect of over 70% in size
Settings: recombinant CLK4, ADP-Glo luminescence; series mostly up to 80 µM
Results filed as inconclusive are left out. The source made the active and inactive calls. The call rests on the fitted dose curve; in most records, active means well fitted inhibition curve with a large enough effect; inconclusive means small, poorly fitted or top-dose-only effect; inactive means flat fitted curve, though single readings scatter.
Classes used: active, inactive

[
  {
    "structure_as_smiles": "COc1ncc2nc(-c3cn(C)c4ccccc34)c(=O)n(-c3ccccc3)c2n1",
    "experimental_target": "Dual specificity protein kinase CLK4 (Homo sapiens)",
    "category_label": "inactive"
  },
  {
    "structure_as_smiles": "COc1ccccc1-c1nc(N2CCOCC2)c2ccccc2n1",
    "experimental_target": "Dual specificity protein kinase CLK4 (Homo sapiens)",
    "category_label": "active"
  },
  {
    "structure_as_smiles": "COc1cccc(-c2nc(NC3CCNCC3)c3ccccc3n2)c1",
    "experimental_target": "Dual specificity protein kinase CLK4 (Homo sapiens)",
    "category_label": "active"
  },
  {
    "structure_as_smiles": "Cc1cnc(CNc2ncnc3ccc(-c4cccc(NS(C)(=O)=O)c4)cc23)cn1",
    "experimental_target": "Dual specificity protein kinase CLK4 (Homo sapiens)",
    "category_label": "active"
  },
  {
    "structure_as_smiles": "c1csc(CNc2ccnc(-c3ccc4c(c3)OCO4)n2)c1",
    "experimental_target": "Dual specificity protein kinase CLK4 (Homo sapiens)",
    "category_label": "active"
  },
  {
    "structure_as_smiles": "COc1ccccc1-c1cc(NCc2cccs2)ncn1",
    "experimental_target": "Dual specificity protein kinase CLK4 (Homo sapiens)",
    "category_label": "active"
  },
  {
    "structure_as_smiles": "Cc1noc(C)c1-c1nccc(N(C)Cc2ccco2)n1",
    "experimental_target": "Dual specificity protein kinase CLK4 (Homo sapiens)",
    "category_label": "inactive"
  },
  {
    "structure_as_smiles": "CCNc1ncc2nc(-c3cc(F)cc(F)c3)c(=O)n(C3CC3)c2n1",
    "experimental_target": "Dual specificity protein kinase CLK4 (Homo sapiens)",
    "category_label": "inactive"
  },
  {
    "structure_as_smiles": "COc1ccccc1-c1ccc2ncnc(NCc3cnc(C)cn3)c2c1",
    "experimental_target": "Dual specificity protein kinase CLK4 (Homo sapiens)",
    "category_label": "active"
  },
  {
    "structure_as_smiles": "COc1ccc(CNc2ncnc3ccc(-c4ccoc4)cc23)c(OC)c1",
    "experimental_target": "Dual specificity protein kinase CLK4 (Homo sapiens)",
    "category_label": "active"
  },
  {
    "structure_as_smiles": "COc1ccc2[nH]cc(CCNc3ncncc3-c3cccc(NS(C)(=O)=O)c3)c2c1",
    "experimental_target": "Dual specificity protein kinase CLK4 (Homo sapiens)",
    "category_label": "active"
  }
]

----------
Target: Cytochrome P450 1A2 (Homo sapiens)
Test: p450-cyp1a2 (AID 410)
Settings: recombinant CYP1A2, luciferin-ME demethylation, luminescence; series mostly up to 57 µM
Results filed as inconclusive are left out. The source made the active and inactive calls. Calls come from the whole dose curve.
Possible outcomes: active, inactive

[
  {
    "structure_as_smiles": "CC(C)NC[C@H](O)c1cc(O)cc(O)c1",
    "category_label": "inactive"
  },
  {
    "structure_as_smiles": "CN(Cc1ccco1)c1cc(-c2cccc(C#N)c2)ncn1",
    "category_label": "active"
  },
  {
    "structure_as_smiles": "O=c1c(-c2ccc(Cl)cc2)nc2cnc(N3CCOCC3)nc2n1Cc1ccc(F)cc1",
    "category_label": "inactive"
  },
  {
    "structure_as_smiles": "COc1cccc(-c2cc(NCc3cnc(C)cn3)ncn2)c1",
    "category_label": "active"
  },
  {
    "structure_as_smiles": "COc1ccc(NC(=O)N2CCCC3(CCN(C(=O)c4cc(C(F)(F)F)cc(C(F)(F)F)c4)CC3)C2)cc1",
    "category_label": "inactive"
  },
  {
    "structure_as_smiles": "O=C(c1cccc(F)c1)N1CCC2(CCCN(c3ccc(-c4ccccc4)cc3)C2)CC1",
    "category_label": "active"
  },
  {
    "structure_as_smiles": "O=S(=O)(c1ccccc1)N1CCC2(CCN(Cc3ccccc3)CC2)CC1",
    "category_label": "inactive"
  },
  {
    "structure_as_smiles": "CCNc1ncc2nc(-c3ccccc3)c(=O)n(CCc3ccccc3)c2n1",
    "category_label": "active"
  },
  {
    "structure_as_smiles": "COCCn1c(=O)c(-c2ccc(Cl)cc2)nc2cncnc21",
    "category_label": "active"
  },
  {
    "structure_as_smiles": "O=C(c1ccco1)N1CCC2(CCCN(Cc3ccccc3)C2)CC1",
    "category_label": "inactive"
  },
  {
    "structure_as_smiles": "O=c1cnc2cnc(Oc3cccc(Cl)c3)nc2n1C1CC1",
    "category_label": "active"
  },
  {
    "structure_as_smiles": "Cc1ccccc1-c1cncnc1NCc1cccnc1",
    "category_label": "active"
  },
  {
    "structure_as_smiles": "c1ccc(CNc2nc(-c3ccoc3)nc3ccccc23)cc1",
    "category_label": "active"
  },
  {
    "structure_as_smiles": "COc1ccc2[nH]cc(CCNc3cc(-c4ccccc4C)ncn3)c2c1",
    "category_label": "active"
  },
  {
    "structure_as_smiles": "CS(=O)(=O)Nc1cccc(-c2nc(NCCN3CCOCC3)c3ccccc3n2)c1",
    "category_label": "active"
  },
  {
    "structure_as_smiles": "COc1cccc(-c2ccc3ncnc(NC4CC4)c3c2)c1",
    "category_label": "active"
  },
  {
    "structure_as_smiles": "COc1ccc(CNc2cc(-c3ccccc3CN(C)C)ncn2)c(OC)c1",
    "category_label": "active"
  },
  {
    "structure_as_smiles": "COc1cccc(-c2nc(NCc3cccs3)c3ccccc3n2)c1",
    "category_label": "active"
  },
  {
    "structure_as_smiles": "COc1cccc(-c2cncnc2NCc2cccnc2)c1",
    "category_label": "active"
  },
  {
    "structure_as_smiles": "COC(=O)N1CCC2(CC1)CN(c1ccccc1)C2",
    "category_label": "inactive"
  },
  {
    "structure_as_smiles": "O=c1c(-c2ccccc2)nc2cncnc2n1-c1ccccc1",
    "category_label": "active"
  },
  {
    "structure_as_smiles": "COc1cccc(-c2ccc3ncnc(NCCc4c[nH]c5ccc(OC)cc45)c3c2)c1",
    "category_label": "active"
  },
  {
    "structure_as_smiles": "CN(C)Cc1ccccc1-c1nccc(NC2CC2)n1",
    "category_label": "active"
  },
  {
    "structure_as_smiles": "CN(C)c1ccc(-c2nc(NC3CCNCC3)c3ccccc3n2)cc1",
    "category_label": "active"
  }
]
